# System: UACC-62 melanoma
# procedure.text: NCI-60 one-dose screen, 48 h (100 = growth as untreated, 0 = no growth, -100 = all killed)
# condition.summary: 10 µM
The panel holds about 83,000 compounds, 20% with a hit somewhere; the sample as a whole holds those more often.
result.type: growth (%)

compound: C=C(C)[C@@H]1CC[C@]2(C(=O)OC)CC[C@]3(C)[C@H](CC[C@@H]4[C@@]5(C)CC[C@H](N)C(C)(C)[C@@H]5CC[C@]43C)[C@@H]12
tested.system: UACC-62 melanoma
assay.result: -97.9
--
compound: Clc1cccc(N/N=C/c2c[nH]c3ccccc23)n1
tested.system: UACC-62 melanoma
assay.result: 55.1
--
compound: COc1ccc(-c2nc(S(=O)(=O)c3ccc(C)cc3)c(S(C)(=O)=O)o2)cc1
tested.system: UACC-62 melanoma
assay.result: -58.2
--
compound: COc1ccc(-c2cc(C(=O)N=Nc3c(O)[nH]c4ccccc34)c3ccccc3n2)cc1
tested.system: UACC-62 melanoma
assay.result: 39.5
--
compound: C=CC(=O)Nc1nc(-c2cccc(NS(=O)(=O)c3cccc4c(N(C)C)cccc34)c2)cs1
tested.system: UACC-62 melanoma
assay.result: -86.8
--
compound: CS(=O)(=O)Nc1ccc(-c2ccc3c(c2)ncn3-c2ccc(NC(=O)Nc3ccc(Br)cc3)cc2)cc1
tested.system: UACC-62 melanoma
assay.result: -35.6
--
compound: COc1ccsc1/C=N/NC(=O)c1[nH]c2ccc(Br)cc2c1-c1ccccc1
tested.system: UACC-62 melanoma
assay.result: 9.1
--
compound: COc1ccc(-c2nc(S(=O)(=O)c3ccc(C)cc3)c(S(=O)(=O)CC(=O)N(C)Cc3ccccc3)o2)cc1
tested.system: UACC-62 melanoma
assay.result: 46.7
--
compound: Cc1ccc(CSc2nc(Cl)c(C#N)c(-c3ccc(F)cc3)n2)cc1
tested.system: UACC-62 melanoma
assay.result: 77.2
